Each item that follows carries a reported Max Editing.
# Tested on: TTR
# assay.overview: TTR editing dose response (EC50, maximum editing) in primary human hepatocytes treated with LNP formulated U-depleted Spy Cas9 mRNA and sgRNAs
# Type: cell-based
# condition.details: LNP with U-depleted Spy Cas9 mRNA and cyno specific sgRNA, 8 point 3-fold dose response starting at 300 ng mRNA, 72 hours
Strand notation (5' to 3'): a small letter for the sugar, then the base; units joined by * are phosphorothioate-linked, units joined directly phosphodiester-linked; [ ] holds rarer units or linkages, { } end groups; capitals alone tell only the bases. m = 2'-O-methyl; r = 2'-OH (RNA)
The answer is to be given in %; state only the numeric part.

Here are 3 molecules together with their reported answers.
G000502: TTR Cyno specific sgRNA modified sequence, SEQ ID NO: 114; guide sequence of CR000689; cross homologous between mouse and cyno (nucleic acid) guide: mA*mC*mA*rCrArArArUrArCrCrArGrUrCrCrArGrCrGrGrUrUrUrUrArGrAmGmCmUmAmGmAmAmAmUmAmGmCrArArGrUrUrArArArArUrArArGrGrCrUrArGrUrCrCrGrUrUrArUrCrAmAmCmUmUmGmAmAmAmAmAmGmUmGmGmCmAmCmCmGmAmGmUmCmGmGmUmGmCmU*mU*mU*mU ... 91.5
G000505: TTR Cyno specific sgRNA modified sequence, SEQ ID NO: 117; guide sequence of CR005365 (nucleic acid) guide: mC*mA*mU*rUrGrArCrArGrCrArGrGrArCrUrGrCrCrUrGrUrUrUrUrArGrAmGmCmUmAmGmAmAmAmUmAmGmCrArArGrUrUrArArArArUrArArGrGrCrUrArGrUrCrCrGrUrUrArUrCrAmAmCmUmUmGmAmAmAmAmAmGmUmGmGmCmAmCmCmGmAmGmUmCmGmGmUmGmCmU*mU*mU*mU ... 13.48
G000506: TTR Cyno specific sgRNA modified sequence, SEQ ID NO: 118; guide sequence of CR005366 (nucleic acid) guide: mA*mU*mA*rCrCrArGrUrCrCrArGrCrGrArGrGrCrArGrGrUrUrUrUrArGrAmGmCmUmAmGmAmAmAmUmAmGmCrArArGrUrUrArArArArUrArArGrGrCrUrArGrUrCrCrGrUrUrArUrCrAmAmCmUmUmGmAmAmAmAmAmGmUmGmGmCmAmCmCmGmAmGmUmCmGmGmUmGmCmU*mU*mU*mU ... 89.49

Shifting focus to the molecule that follows.
Kindly note the recorded Max Editing for G000504: TTR Cyno specific sgRNA modified sequence, SEQ ID NO: 116; guide sequence of CR005364 (nucleic acid) guide: mA*mA*mA*rGrGrCrUrGrCrUrGrArUrGrArGrArCrCrUrGrUrUrUrUrArGrAmGmCmUmAmGmAmAmAmUmAmGmCrArArGrUrUrArArArArUrArArGrGrCrUrArGrUrCrCrGrUrUrArUrCrAmAmCmUmUmGmAmAmAmAmAmGmUmGmGmCmAmCmCmGmAmGmUmCmGmGmUmGmCmU*mU*mU*mU , which is 7.16
